I'd be grateful if you could share measured Trimeric HA Binding: RLU for these entries.
Molecular target: recombinant homotrimeric HA A/South Carolina/1/18 H1N1 (Influenza A virus A/South Carolina/1/18 (H1N1))
Assay: protein microarray, purified IgG, trimeric HA
Conditions: remark: other sources report otherwise
Supply the numeric figure in RLU, leaving out any unit text.

Request: Give the measured Trimeric HA Binding: RLU for TCN-532 (5262_H18) (antibody, V domains shown) VH: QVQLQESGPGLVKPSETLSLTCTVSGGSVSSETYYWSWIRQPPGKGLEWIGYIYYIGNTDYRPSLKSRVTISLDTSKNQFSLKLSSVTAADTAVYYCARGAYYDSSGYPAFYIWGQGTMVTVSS VL: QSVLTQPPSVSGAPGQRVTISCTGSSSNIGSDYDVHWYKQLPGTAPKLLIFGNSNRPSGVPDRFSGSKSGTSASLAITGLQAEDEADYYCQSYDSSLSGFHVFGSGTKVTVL
Response: 149

Request: Give the measured Trimeric HA Binding: RLU for TCN-555 (5246_L16) (antibody, V domains shown) VH: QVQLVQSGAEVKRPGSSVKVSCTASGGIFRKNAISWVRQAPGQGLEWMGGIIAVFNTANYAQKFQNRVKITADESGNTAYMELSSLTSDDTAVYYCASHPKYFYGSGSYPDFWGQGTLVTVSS VL: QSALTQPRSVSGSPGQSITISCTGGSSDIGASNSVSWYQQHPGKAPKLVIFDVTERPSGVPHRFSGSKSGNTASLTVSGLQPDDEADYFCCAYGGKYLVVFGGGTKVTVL
Response: 13700

Request: Give the measured Trimeric HA Binding: RLU for TCN-543 (5081_G23) (antibody, V domains shown) VH: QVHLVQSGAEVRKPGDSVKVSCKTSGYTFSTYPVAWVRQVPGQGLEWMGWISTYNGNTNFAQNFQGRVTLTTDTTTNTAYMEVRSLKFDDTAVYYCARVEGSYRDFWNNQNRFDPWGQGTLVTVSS VL: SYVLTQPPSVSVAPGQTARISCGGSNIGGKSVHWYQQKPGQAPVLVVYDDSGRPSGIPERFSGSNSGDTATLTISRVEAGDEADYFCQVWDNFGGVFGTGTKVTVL
Response: 259

Request: Give the measured Trimeric HA Binding: RLU for TCN-544 (5082_A19) (antibody, V domains shown) VH: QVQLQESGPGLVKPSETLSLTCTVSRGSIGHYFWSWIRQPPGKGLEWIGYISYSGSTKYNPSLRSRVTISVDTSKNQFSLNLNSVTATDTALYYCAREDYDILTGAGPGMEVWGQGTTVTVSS VL: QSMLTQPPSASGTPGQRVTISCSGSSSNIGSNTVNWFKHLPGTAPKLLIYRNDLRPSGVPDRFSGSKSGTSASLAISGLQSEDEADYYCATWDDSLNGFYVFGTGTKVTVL
Response: 148
